- Tested on: MDA-MB-231 cells
- protocolNotes: Combination effect of STX-1159 and mTOR inhibitor, WST-8 assay
- Assay type: cell-based, Human
- measurementContext: in combination with STX-1159, 48 hours
The label depends only on CI: 1 if it is at least 0.6, -1 if it is smaller.

- COc1ccc(-c2cc3c(C)nc(N)nc3n([C@H]3CC[C@H](OCCO)CC3)c2=O)cn1 [PF-04691502]: 1
- COc1ncc(-c2ccc3nccc(-c4ccnnc4)c3c2)cc1NS(=O)(=O)c1ccc(F)cc1F [GSK2126458]: 1
- COc1cccc2cc(-c3nc([C@H]4CC[C@H](C(=O)O)CC4)n4ncnc(N)c34)[nH]c12 [OSI-027]: -1
- CCC(=O)N1CCN(c2ccc(-n3c(=O)ccc4cnc5ccc(-c6cnc7ccccc7c6)cc5c43)cc2C(F)(F)F)CC1 [Torin 1]: 1
- Nc1ncnc2c1c(-c1cnc3[nH]ccc3c1)nn2C1CCCC1 [PP-121]: 1
- COc1ccc(-c2ccc3c(N4CCOC[C@@H]4C)nc(N4CCOC[C@@H]4C)nc3n2)cc1CO [AZD8055]: -1
- CNC(=O)Nc1ccc(-c2nc(N3CC4CCC(C3)O4)c3cnn(C4CCC5(CC4)OCCO5)c3n2)cc1 [WYE-125132]: -1
- CN(C)C1CCN(C(=O)c2ccc(NC(=O)Nc3ccc(-c4nc(N5CCOCC5)nc(N5CCOCC5)n4)cc3)cc2)CC1 [PF-05212384(PKI-587)]: 1
